Catalogue of binders with associated Kd
# TARGET_UNDER_TEST: T1, Human PD-L1 Fc-fusion protein (R&D Systems, 156-B7) (Homo sapiens, UniProt Q9NZQ7)
# T1 construct: programmed death-ligand 1 (PD-L1, B7-H1, CD274), human; also called huPD-L1; B7-H1; source: bought: R&D Systems (156-B7)
# TEST_PROTOCOL: SPR; Biacore T200, 25°C, HBS (0.01 M HEPES pH 7.4, 0.15 M NaCl, 3 mM EDTA, 0.005% Tween 20); mouse or human PD-L1 Fc-fusion protein amine-coupled on a CM5 chip (650-900 RU); Nb in crude periplasmic extract as analyte, its concentration estimated by CFCA; 9 dilutions, 120 s association, 160 s dissociation; 1-to-1 fit; affinity estimations
# EXPERIMENTAL_SETUP: one partner purified
Use nM as the unit, but write only the number.

Nb G2 (HA-tagged, in periplasmic extract) (VHH, source: E. coli WK6 (pHEN4), crude periplasmic extract) VHH: QVQLQESGGGLVQPGGSLRLSCVASGSISSFNFMGWYRQAPGKQRELVALSTNSGVTNVAGSVKGRFTISRDNAKTTVYLQMNSLKPEDTAVYYCRVGAMGNLYWGQGTQVTVSS    158

Attention now turns to another entry.
State, in one line, measured Kd of Nb C3 (HA-tagged, in periplasmic extract) (VHH, source: E. coli WK6 (pHEN4), crude periplasmic extract) VHH: QVQLQESGGGLVQTGGSLRLSCAASGSTVSSSMMAWWRQTPGNQRELVALVASGNNTNYVDSVKGRFTVSRDNAKNTMYLQMNSLKPEDTAVYYCRILSVNGIWYWGQGTQVTVSS
32
